biological target: PDK1 kinase (Homo sapiens, UniProt O15530); assay: PDK1 Kinase Alpha Screen Assay; type: biochemical; settings: read-out: PDK1 IC50
Sequence (O15530 whole entry): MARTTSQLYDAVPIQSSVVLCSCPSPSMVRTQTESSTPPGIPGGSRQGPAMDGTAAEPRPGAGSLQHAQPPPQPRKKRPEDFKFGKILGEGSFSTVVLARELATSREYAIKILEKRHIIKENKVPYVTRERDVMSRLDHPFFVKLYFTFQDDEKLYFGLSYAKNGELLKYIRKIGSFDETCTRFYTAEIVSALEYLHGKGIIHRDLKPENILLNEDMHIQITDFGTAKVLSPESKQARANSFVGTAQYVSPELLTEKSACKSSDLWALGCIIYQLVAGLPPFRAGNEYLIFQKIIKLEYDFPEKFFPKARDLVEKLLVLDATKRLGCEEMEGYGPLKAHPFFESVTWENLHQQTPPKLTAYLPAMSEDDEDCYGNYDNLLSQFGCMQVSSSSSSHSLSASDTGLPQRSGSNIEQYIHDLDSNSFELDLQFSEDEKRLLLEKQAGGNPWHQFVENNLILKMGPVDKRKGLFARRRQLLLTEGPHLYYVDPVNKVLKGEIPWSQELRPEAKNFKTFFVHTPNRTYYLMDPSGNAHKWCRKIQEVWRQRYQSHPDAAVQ
Quick reference for IC50 among some compounds

>  <Compound>
CC(C)N1CCC(c2c(O)ccc3cnc(Nc4ccc(F)cc4)nc23)CC1 [Compound 940]

>  <IC50>
< 5 µM

$$$$
>  <Compound>
Nc1cc(-c2cccc3cnc(Nc4ccc(S(N)(=O)=O)cc4)nc23)ccn1 [Compound 109]

>  <IC50>
< 5 µM

$$$$
>  <Compound>
NS(=O)(=O)c1ccc(Nc2ncc3cccc(CNCC4CCCO4)c3n2)cc1 (centres unmarked) [Compound 922]

>  <IC50>
< 5 µM

$$$$
>  <Compound>
CC(C)N1CCC(Oc2ccc3cnc(Nc4ccc(F)cc4)nc3c2)CC1 [Compound 60]

>  <IC50>
< 5 µM

$$$$
>  <Compound>
Fc1ccc(Nc2ncc3cccc(-c4ccc(NCCN5CCCC5)nc4)c3n2)c(F)c1 [Compound 1017]

>  <IC50>
< 5 µM

$$$$
>  <Compound>
CC(=O)Nc1cccc(Nc2ncc3cccc(OC4CCN(C(C)C)CC4)c3n2)c1 [Compound 81]

>  <IC50>
< 5 µM

$$$$
>  <Compound>
CNC(=O)Cc1cccc(Nc2ncc3cccc(OC4CCN(C(C)C)CC4)c3n2)c1 [Compound 77]

>  <IC50>
< 5 µM

$$$$
>  <Compound>
COCCNS(=O)(=O)c1cccc(Nc2ncc3cccc(OC4CCNCC4)c3n2)c1 [Compound 9]

>  <IC50>
< 5 µM

$$$$
